System: SK-MEL-2
Experiment: NCI tumour cell line growth inhibition, 48 h
Calls of active or inactive are those of the source. Cut-off read from the data, not from the text of the source: active = GI50 up to about 1.1 µM and inactive = higher. Peptide text beside a SMILES is read from it. * marks the point of attachment. Cbz = O=C(OCc1ccccc1)*; OBn = c1ccc(CO*)cc1
Outcome field: choose from t (active), f (inactive)

Exam item: Any idea what this test logged for O=C(c1ccccc1)c1ccc2c(c1)nc1n2C(c2c(Cl)cccc2Cl)SC1 (stereo unspecified) ?
Marked response: f

Exam item: Any idea what this test logged for `COc1ccc(/C=N/NC(=O)c2ccccc2Nc2ccccc2C(=O)N/N=C/c2ccc(OC)c(OC)c2)cc1OC` ?
Marked response: f

Exam item: Any idea what this test logged for `CC(C)CCn1nc(N)c2nc3ccccc3nc21` ?
Marked response: f

Exam item: Any idea what this test logged for `CC[C@@]1(C[C@H]2C[C@@]3(C(=O)OC)c4[nH]c5ccccc5c4CCN3C2=S)COC2(CCCCC2)O1` ?
Marked response: f

Exam item: Any idea what this test logged for COC(=O)CNC(=O)C(C)NC(=O)C(CC(=O)OCc1ccccc1)NC(=O)OCc1ccccc1 (stereo not drawn) (Cbz-Asp(OBn)-Ala-Gly-OMe; configuration not given here) ?
Marked response: f

====

# key: entry, value: GI50
Tested on: HCT-116
Test: NCI tumour cell line growth inhibition, 48 h
Activity calls are given as the source filed them. Rule as the data show it: active = GI50 up to about 1.1 µM and inactive = higher.

For orientation, consider the following solved cases.
>>> result("CCOC(=O)C#Cc1ccc([N+](=O)[O-])cc1")
"1.66 µM (inactive)"
>>> result("Cc1cc(C(=O)CCCCOc2ccc(C3=NCCO3)cc2)c(C)n1C")
"39.9 µM (inactive)"
>>> result("CCOC(=O)Cc1csc(N/C=C2/C(=O)Oc3ccccc3C2=O)n1")
"27.6 µM (inactive)"
>>> result("Fc1ccc(/N=C/C=C/Nc2ccc(F)cc2)cc1")
"3 µM (inactive)"

Exam item: Provide measured GI50 value, entry: CCOC(=O)C(C)c1nc2cc(F)c(N3CCOCC3)cc2[nH]c1=O (stereo unspecified)
Marked response: > 100 µM (inactive)

Exam item: Provide measured GI50 value, entry: `NC1=C(N2CCOCC2)C(=O)NC2=N/C(=C\c3ccccc3O)C(=O)N21`
Marked response: > 100 µM (inactive)

Exam item: Provide measured GI50 value, entry: `C=CCOCn1ccc(=O)[nH]c1=O`
Marked response: > 100 µM (inactive)

Exam item: Provide measured GI50 value, entry: `O=C(N/N=C/c1ccc(Cl)cc1)c1cc(I)cc(I)c1O`
Marked response: > 100 µM (inactive)

====

Tested on: NCI-H460
Assay: NCI tumour cell line growth inhibition, 48 h
The source made the active and inactive calls. No stated cut-off is given here; in the data, active = GI50 up to about 1.1 µM and inactive = higher.
# key: entry, value: GI50

For orientation, consider the following solved cases.
>>> result("NCC(O)CNCC/C=C\\C/C=C\\C/C=C\\C/C=C\\C/C=C\\C/C=C\\CCCCC/C=C\\CCNCC(O)CN (stereo unspecified)")
"1.82 µM (inactive)"
>>> result("OC1CCCCCCCCCCC1[S+]1CCCC1.O[B-](F)(F)F (stereo unspecified)")
"> 100 µM (inactive)"
>>> result("Fc1ccccc1C1SCc2nc3ccccc3n21 (stereo unspecified)")
"47.9 µM (inactive)"
>>> result("Cc1ccccc1CN1CC=c2ccccc2=N1")
"> 100 µM (inactive)"
>>> result("O=c1cc(-c2ccc(O)c(O)c2)oc2cc(O[C@H]3O[C@H](CO)[C@@H](O)[C@H](O)[C@H]3O)cc(O)c12")
"34.8 µM (inactive)"

Now take the following compound into account.
Exam item: Provide measured GI50 value, entry: N=C(N)NCCCC(NC(=O)OCCCCCCn1ccc(N)nc1=O)C(=O)O (stereo unspecified)
Marked response: > 100 µM (inactive)

src = ChEMBL document CHEMBL1201862
